pKi by entry:
target: Kappa-type opioid receptor (Homo sapiens, UniProt P41145); assay: Displacement of [3H]-U69593 from KOR receptor (unknown origin) assessed as inhibition constant
Sequence (P41145 whole entry): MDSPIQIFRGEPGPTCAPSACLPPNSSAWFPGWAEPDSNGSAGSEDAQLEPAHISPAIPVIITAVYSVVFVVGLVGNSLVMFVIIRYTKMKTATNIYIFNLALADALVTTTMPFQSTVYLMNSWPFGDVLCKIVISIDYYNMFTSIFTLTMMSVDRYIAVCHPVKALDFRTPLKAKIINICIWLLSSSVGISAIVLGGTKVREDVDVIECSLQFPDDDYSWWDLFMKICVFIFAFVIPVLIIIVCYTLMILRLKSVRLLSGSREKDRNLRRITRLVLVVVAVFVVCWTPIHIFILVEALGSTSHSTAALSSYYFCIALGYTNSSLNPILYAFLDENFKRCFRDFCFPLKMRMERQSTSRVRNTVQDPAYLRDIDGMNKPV
pKi: −log10 of the molar value.
READOUT_NAME: pKi

INSERT INTO measurements (molecule, readout_name, result) VALUES
  ('COC(=O)[C@@]1(c2ccccc2)C[C@H]1CN1CC[C@@]2(C)c3cc(O)ccc3C[C@H]1[C@H]2C', 'pKi', '< 6.00'),
  ('COC(=O)[C@]1(c2ccc(Cl)cc2)C[C@@H]1CN1CC[C@]2(C)c3cc(O)ccc3C[C@@H]1[C@@H]2C', 'pKi', 9.39),
  ('C=CCN1CC[C@@]2(C)c3cc(O)ccc3C[C@H]1[C@H]2C', 'pKi', '< 6.00'),
  ('COC(=O)[C@]1(c2ccccc2)C[C@@H]1CN1CC[C@]2(C)c3cc(O)ccc3C[C@@H]1[C@@H]2C', 'pKi', 6.62),
  ('COC(=O)C1(c2ccccc2)CC1CN1CC[C@@]2(C)c3cc(O)ccc3C[C@H]1[C@H]2C (mixture of isomers)', 'pKi', '< 6.00'),
  ('COC(=O)[C@]1(c2ccccc2)C[C@@H]1CN1CC[C@@]2(C)c3cc(O)ccc3C[C@H]1[C@H]2C', 'pKi', '< 6.00');
